For each entry below, report its Cell differentation/cell proliferation HL-60 value.
# Test system: HL-60 cells
# assay_overview: HL-60 cell differentiation (NBT reduction)
# Type: cell-based
# test_settings: % of the activity of 1α,25-(OH)2D3 at 50% of its activity (B50); human leukemia cells

molecule	reading
C=C1C(=CC=CCC2(C)CCC(CCCCC(O)(CC)CC)C2(C)C)CC(O)CC1O (stereo not shown)	75%
C=C1C(=CC=C2CCCC3C2CCC3C(C)CCCC(C)(C)O)CC(O)CC1O (stereo not shown)	720%

Please state Cell differentation/cell proliferation HL-60 for every molecule in the list that follows.
1. C=C1/C(=C\C=C2/CCC[C@](C)([C@H](C)[C@H](C)CCCC(C)(C)O)C2)C[C@@H](O)C[C@@H]1O
2. CC(CCCC(C)(C)O)C(C)C1(C)CCCC(=CC=C2CC(O)CC(O)C2)C1 (stereo not shown)
3. C=C1C(=CC=CC2CCCC(C(C)CCCC(C)(C)O)C2(C)C)CC(O)CC1O (stereo not shown)
4. CC(CC#CC1(C)CO1)C1CCC2C(=CC=C3CC(O)CC(O)C3)CCCC21C (mixture of isomers)
5. CC(CCCC(C)(C)O)C1CCC2C(=CC=C3CC(O)CC(O)C3)CCC(O)C21 (stereo not shown)
6. C=C1C(=CC=CCC2(C)CCC(OCCC(O)(CC)CC)C2(C)C)CC(O)CC1O (stereo not shown)

Response line:
1. 1000%
2. >1000%
3. 100%
4. 80%
5. 75%
6. 10%

Provide Cell differentation/cell proliferation HL-60 for all items below, preserving their order.
1. C=C1/C(=C\C=C2/CCC[C@](C)([C@H](C)[C@H](C)CC[C@H](O)C(C)C)C2)C[C@@H](O)C[C@@H]1O
2. CCC(O)(C=CC=CC(C)C1CCC2C(=CC=C3CC(O)CC(O)C3)CCCC21C)CC (stereo not shown)
3. CC(CCCCC(C)(C)O)C1CCC2C(=CC=C3CC(O)CC(O)C3)CCCC21C (stereo not shown)
4. C=C1C(=CC=CCC2(C)CCC(CCCCC(C)(C)O)C2(C)C)CC(O)CC1O (stereo not shown)
5. CC(CCCC(C)(C)O)C1CCC2C(=CC=C3CC(O)CC(O)C3)CCCC21C (stereo not shown)
6. CC1=C(/C=C\C2=CCC[C@](C)([C@H](C)[C@H](C)CC[C@@H](O)C(C)C)C2)C[C@@H](O)C[C@@H]1O

Response line:
["500%", "40%", "30%", "10%", "40%", "650%"]

Take each entry in turn and give its Cell differentation/cell proliferation HL-60.
1. C=C1/C(=C\C=C2/CCC[C@](C)([C@H](C)[C@H](C)CC[C@@H](O)C(C)C)C2)C[C@@H](O)C[C@@H]1O
2. C=C1C(=CC=CCC2(C)CCC(CCCC(O)(CC)CC)C2(C)C)CC(O)CC1O (stereo not shown) [Compound 12]

Response line:
1: 4000%; 2: 250%
